assay: Tumor uptake and tissue distribution in mice bearing SJSA-1 xenografts; assay type: in vivo, athymic mice; settings: athymic, mouse, liver, iv, 166.5 kBq, total radioactivity

compound	unitAnnotation	tissue uptake at 6 h
CC(=O)N[C@@H](CCCCNC(=O)c1cccc(I)c1)C(=O)NCCCCCC(=O)N[C@H](C(=O)N[C@@H](CO)C(=O)N[C@@H](Cc1ccccc1)C(=O)N[C@]1(C)CCCCCCC=CCCC[C@@](C)(C(=O)N[C@@H](CCC(=O)O)C(=O)N[C@@H](CC(N)=O)C(=O)N[C@@H](Cc2ccccc2)C(N)=O)NC(=O)[C@H](CC(C)C)NC(=O)[C@H](CC(C)C)NC(=O)[C@H](C)NC(=O)[C@H](Cc2c[nH]c3ccccc23)NC(=O)[C@H](Cc2ccc(O)cc2)NC(=O)[C@H](CCC(=O)O)NC1=O)[C@@H](C)O [[^125I]SIB-VIP116]	%ID/g	11.4

---

assay: Tumor uptake and tissue distribution in mice bearing SJSA-1 xenografts; type: in vivo, athymic mice; conditions: athymic, mouse, liver, iv, 166.5 kBq, total radioactivity

molecule	tissue uptake at 0.5 h
CC(=O)N[C@@H](CCCCNC(=O)c1cccc(I)c1)C(=O)NCCCCCC(=O)N[C@H](C(=O)N[C@@H](CO)C(=O)N[C@@H](Cc1ccccc1)C(=O)N[C@]1(C)CCCCCCC=CCCC[C@@](C)(C(=O)N[C@@H](CCC(=O)O)C(=O)N[C@@H](CC(N)=O)C(=O)N[C@@H](Cc2ccccc2)C(N)=O)NC(=O)[C@H](CC(C)C)NC(=O)[C@H](CC(C)C)NC(=O)[C@H](C)NC(=O)[C@H](Cc2c[nH]c3ccccc23)NC(=O)[C@H](Cc2ccc(O)cc2)NC(=O)[C@H](CCC(=O)O)NC1=O)[C@@H](C)O [[^125I]SIB-VIP116]	13.5 %ID/g

---

experiment: Tumor uptake and tissue distribution in mice bearing SJSA-1 xenografts; assay type: in vivo, athymic mice; settings: athymic, mouse, thyroid, iv, 166.5 kBq, total radioactivity

compound	tissue uptake at 24 h
CC(=O)N[C@@H](CCCCNC(=O)c1cccc(I)c1)C(=O)NCCCCCC(=O)N[C@H](C(=O)N[C@@H](CO)C(=O)N[C@@H](Cc1ccccc1)C(=O)N[C@]1(C)CCCCCCC=CCCC[C@@](C)(C(=O)N[C@@H](CCC(=O)O)C(=O)N[C@@H](CC(N)=O)C(=O)N[C@@H](Cc2ccccc2)C(N)=O)NC(=O)[C@H](CC(C)C)NC(=O)[C@H](CC(C)C)NC(=O)[C@H](C)NC(=O)[C@H](Cc2c[nH]c3ccccc23)NC(=O)[C@H](Cc2ccc(O)cc2)NC(=O)[C@H](CCC(=O)O)NC1=O)[C@@H](C)O [[^125I]SIB-VIP116]	0.27 %ID/g

---

test: Tumor uptake and tissue distribution in mice bearing SJSA-1 xenografts; format: in vivo, athymic mice; settings: athymic, mouse, muscle, iv, 166.5 kBq, total radioactivity
recordedMetric: tissue uptake at 2 h (%ID/g)

compound	unitAnnotation	recordedValue
CC(=O)N[C@@H](CCCCNC(=O)c1cccc(I)c1)C(=O)NCCCCCC(=O)N[C@H](C(=O)N[C@@H](CO)C(=O)N[C@@H](Cc1ccccc1)C(=O)N[C@]1(C)CCCCCCC=CCCC[C@@](C)(C(=O)N[C@@H](CCC(=O)O)C(=O)N[C@@H](CC(N)=O)C(=O)N[C@@H](Cc2ccccc2)C(N)=O)NC(=O)[C@H](CC(C)C)NC(=O)[C@H](CC(C)C)NC(=O)[C@H](C)NC(=O)[C@H](Cc2c[nH]c3ccccc23)NC(=O)[C@H](Cc2ccc(O)cc2)NC(=O)[C@H](CCC(=O)O)NC1=O)[C@@H](C)O [[^125I]SIB-VIP116]	%ID/g	0.24

---

assay: Tumor uptake and tissue distribution in mice bearing SJSA-1 xenografts; assay type: in vivo, athymic mice; conditions: athymic, mouse, heart, iv, 166.5 kBq, total radioactivity

molecule	tissue uptake at 0.5 h (%ID/g)
CC(=O)N[C@@H](CCCCNC(=O)c1cccc(I)c1)C(=O)NCCCCCC(=O)N[C@H](C(=O)N[C@@H](CO)C(=O)N[C@@H](Cc1ccccc1)C(=O)N[C@]1(C)CCCCCCC=CCCC[C@@](C)(C(=O)N[C@@H](CCC(=O)O)C(=O)N[C@@H](CC(N)=O)C(=O)N[C@@H](Cc2ccccc2)C(N)=O)NC(=O)[C@H](CC(C)C)NC(=O)[C@H](CC(C)C)NC(=O)[C@H](C)NC(=O)[C@H](Cc2c[nH]c3ccccc23)NC(=O)[C@H](Cc2ccc(O)cc2)NC(=O)[C@H](CCC(=O)O)NC1=O)[C@@H](C)O [[^125I]SIB-VIP116]	2.52

---

assay: Tumor uptake and tissue distribution in mice bearing SJSA-1 xenografts; assay type: in vivo, athymic mice; details: athymic, mouse, spleen, iv, 166.5 kBq, total radioactivity
recordedMetric: tissue uptake at 6 h (%ID/g)

compound	recordedValue
CC(=O)N[C@@H](CCCCNC(=O)c1cccc(I)c1)C(=O)NCCCCCC(=O)N[C@H](C(=O)N[C@@H](CO)C(=O)N[C@@H](Cc1ccccc1)C(=O)N[C@]1(C)CCCCCCC=CCCC[C@@](C)(C(=O)N[C@@H](CCC(=O)O)C(=O)N[C@@H](CC(N)=O)C(=O)N[C@@H](Cc2ccccc2)C(N)=O)NC(=O)[C@H](CC(C)C)NC(=O)[C@H](CC(C)C)NC(=O)[C@H](C)NC(=O)[C@H](Cc2c[nH]c3ccccc23)NC(=O)[C@H](Cc2ccc(O)cc2)NC(=O)[C@H](CCC(=O)O)NC1=O)[C@@H](C)O [[^125I]SIB-VIP116]	1.99

---

experiment: Tumor uptake and tissue distribution in mice bearing SJSA-1 xenografts; assay type: in vivo, athymic mice; details: athymic, mouse, skin, iv, 166.5 kBq, total radioactivity
recordedMetric: tissue uptake at 2 h (%ID/g)

molecule	recordedValue
CC(=O)N[C@@H](CCCCNC(=O)c1cccc(I)c1)C(=O)NCCCCCC(=O)N[C@H](C(=O)N[C@@H](CO)C(=O)N[C@@H](Cc1ccccc1)C(=O)N[C@]1(C)CCCCCCC=CCCC[C@@](C)(C(=O)N[C@@H](CCC(=O)O)C(=O)N[C@@H](CC(N)=O)C(=O)N[C@@H](Cc2ccccc2)C(N)=O)NC(=O)[C@H](CC(C)C)NC(=O)[C@H](CC(C)C)NC(=O)[C@H](C)NC(=O)[C@H](Cc2c[nH]c3ccccc23)NC(=O)[C@H](Cc2ccc(O)cc2)NC(=O)[C@H](CCC(=O)O)NC1=O)[C@@H](C)O [[^125I]SIB-VIP116]	0.88

---

assay: Tumor uptake and tissue distribution in mice bearing SJSA-1 xenografts; format: in vivo, athymic mice; conditions: athymic, mouse, kidneys, iv, 166.5 kBq, total radioactivity

molecule	tissue uptake at 0.5 h / %ID/g
CC(=O)N[C@@H](CCCCNC(=O)c1cccc(I)c1)C(=O)NCCCCCC(=O)N[C@H](C(=O)N[C@@H](CO)C(=O)N[C@@H](Cc1ccccc1)C(=O)N[C@]1(C)CCCCCCC=CCCC[C@@](C)(C(=O)N[C@@H](CCC(=O)O)C(=O)N[C@@H](CC(N)=O)C(=O)N[C@@H](Cc2ccccc2)C(N)=O)NC(=O)[C@H](CC(C)C)NC(=O)[C@H](CC(C)C)NC(=O)[C@H](C)NC(=O)[C@H](Cc2c[nH]c3ccccc23)NC(=O)[C@H](Cc2ccc(O)cc2)NC(=O)[C@H](CCC(=O)O)NC1=O)[C@@H](C)O [[^125I]SIB-VIP116]	3.06

---

experiment: Tumor uptake and tissue distribution in mice bearing SJSA-1 xenografts; assay type: in vivo, athymic mice; conditions: athymic, mouse, lungs, iv, 166.5 kBq, total radioactivity

compound	unitAnnotation	tissue uptake at 6 h
CC(=O)N[C@@H](CCCCNC(=O)c1cccc(I)c1)C(=O)NCCCCCC(=O)N[C@H](C(=O)N[C@@H](CO)C(=O)N[C@@H](Cc1ccccc1)C(=O)N[C@]1(C)CCCCCCC=CCCC[C@@](C)(C(=O)N[C@@H](CCC(=O)O)C(=O)N[C@@H](CC(N)=O)C(=O)N[C@@H](Cc2ccccc2)C(N)=O)NC(=O)[C@H](CC(C)C)NC(=O)[C@H](CC(C)C)NC(=O)[C@H](C)NC(=O)[C@H](Cc2c[nH]c3ccccc23)NC(=O)[C@H](Cc2ccc(O)cc2)NC(=O)[C@H](CCC(=O)O)NC1=O)[C@@H](C)O [[^125I]SIB-VIP116]	%ID/g	2.49

---

experiment: Tumor uptake and tissue distribution in mice bearing SJSA-1 xenografts; assay type: in vivo, athymic mice; conditions: athymic, mouse, large intestine, iv, 166.5 kBq, total radioactivity
recordedMetric: tissue uptake at 2 h (%ID/g)

compound	recordedValue
CC(=O)N[C@@H](CCCCNC(=O)c1cccc(I)c1)C(=O)NCCCCCC(=O)N[C@H](C(=O)N[C@@H](CO)C(=O)N[C@@H](Cc1ccccc1)C(=O)N[C@]1(C)CCCCCCC=CCCC[C@@](C)(C(=O)N[C@@H](CCC(=O)O)C(=O)N[C@@H](CC(N)=O)C(=O)N[C@@H](Cc2ccccc2)C(N)=O)NC(=O)[C@H](CC(C)C)NC(=O)[C@H](CC(C)C)NC(=O)[C@H](C)NC(=O)[C@H](Cc2c[nH]c3ccccc23)NC(=O)[C@H](Cc2ccc(O)cc2)NC(=O)[C@H](CCC(=O)O)NC1=O)[C@@H](C)O [[^125I]SIB-VIP116]	0.24
